meta.source: patent US9062048B2

Reported IC50 values for the following molecules.
Biological target: CCR2 (Homo sapiens (Human), UniProt P41597)
Sequence (P41597 whole entry): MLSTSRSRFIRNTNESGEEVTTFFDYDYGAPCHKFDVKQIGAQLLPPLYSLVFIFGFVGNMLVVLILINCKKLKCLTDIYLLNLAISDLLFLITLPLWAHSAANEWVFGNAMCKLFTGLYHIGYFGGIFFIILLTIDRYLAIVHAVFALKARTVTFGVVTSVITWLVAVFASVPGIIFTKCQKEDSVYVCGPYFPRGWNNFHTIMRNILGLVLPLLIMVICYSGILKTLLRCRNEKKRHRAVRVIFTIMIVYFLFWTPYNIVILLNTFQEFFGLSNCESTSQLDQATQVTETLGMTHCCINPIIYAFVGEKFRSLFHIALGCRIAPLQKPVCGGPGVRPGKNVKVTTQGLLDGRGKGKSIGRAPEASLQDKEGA
Assay: MCP-1 Receptor Binding Assay in THP-1 Cells
Conditions: 0.5 nM 125I labeled MCP-1, 2 hours at 30° C., read-out: Inhibition of MCP-1 Binding IC50 MCP1B
MEASURED_PROPERTY: IC50 (nM)

MOLECULE | TARGET_ENTITY | MEASURED_PROPERTY | NUMERIC_READOUT
CN(C)C(=O)[C@H]1CC[C@@H](N2CC(NC(=O)CNc3ncnc4ccc(C(F)(F)F)cc34)C2)CC1 [Example 128] | CCR2 (Homo sapiens (Human), UniProt P41597) | IC50 | 360
O=C(CNc1ncnc2ccc(C(F)(F)F)cc12)NC1CN([C@H]2CC[C@@H](C(O)C(F)(F)F)CC2)C1 (some centres unmarked) [Example 34] | CCR2 (Homo sapiens (Human), UniProt P41597) | IC50 | 73
O=C(CNc1ncnc2ccc(C(F)(F)F)cc12)NC1CN(C2CCCCC2)C1 [Example 101] | CCR2 (Homo sapiens (Human), UniProt P41597) | IC50 | 63
CCC(NC(=O)N(C)C)[C@H]1CC[C@@H](N2CC(NC(=O)CNc3ncnc4ccc(C(F)(F)F)cc34)C2)CC1 (some centres unmarked) [Example 143] | CCR2 (Homo sapiens (Human), UniProt P41597) | IC50 | 13800
CC(O)[C@H]1CC[C@@H](N2CC(NC(=O)CNc3ncnc4ccc(C(F)(F)F)cc34)C2)CC1 (some centres unmarked) [Example 97] | CCR2 (Homo sapiens (Human), UniProt P41597) | IC50 | 89
CCC(NS(C)(=O)=O)[C@H]1CC[C@@H](N2CC(NC(=O)CNc3ncnc4ccc(C(F)(F)F)cc34)C2)CC1 (some centres unmarked) [Example 139] | CCR2 (Homo sapiens (Human), UniProt P41597) | IC50 | 1450
CC(C)c1nc(NCC(=O)NC2CN([C@H]3CC[C@@](O)(c4cncs4)CC3)C2)c2cc(C(F)(F)F)ccc2n1 [Example 88] | CCR2 (Homo sapiens (Human), UniProt P41597) | IC50 | 7
CCN(C(=O)OCc1ccccc1)[C@H]1CC[C@@H](N2CC(NC(=O)CNc3ncnc4ccc(C(F)(F)F)cc34)C2)CC1 [Example 47] | CCR2 (Homo sapiens (Human), UniProt P41597) | IC50 | 160

###

The following compounds are listed with their measured IC50 values.
Target: CCR2 (Homo sapiens (Human))
Assay: MCP-1 Receptor Binding Assay in THP-1 Cells
Conditions: 0.5 nM 125I labeled MCP-1, 2 hours at 30° C., read-out: Inhibition of MCP-1 Binding IC50 MCP1B

COMPOUND | IC50 / nM
[2H][C@]1(N2CC(NC(=O)CNc3ncnc4ccc(C(F)(F)F)cc34)C2)CC[C@@H](C(C)C)CC1 | 85
CNc1cnccc1C1CCC(N2CC(NC(=O)CNc3ncnc4ccc(C(F)(F)F)cc34)C2)CC1 (stereo not drawn) | 130
CC(C)(C)OC(=O)NC[C@H]1CC[C@@H](N2CC(NC(=O)CNc3ncnc4ccc(C(F)(F)F)cc34)C2)CC1 | 120

###

Target: CCR2 (Homo sapiens (Human), UniProt P41597)
Assay: MCP-1 Receptor Binding Assay in THP-1 Cells;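 further: THP-1 is a human monocytic cell line, and nonspecific binding was defined with 1 µM unlabeled MCP-1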
Conditions: 0.5 nM 125I labeled MCP-1, 2 hours at 30° C., read-out: Inhibition of MCP-1 Binding IC50 MCP1B
MEASURED_PROPERTY: IC50 (nM)

COMPOUND | READOUT_UNITS | LIMIT_QUALIFIER | NUMERIC_READOUT
CC[C@H](O)[C@H]1CC[C@H](N2CC(NC(=O)CNc3nccc4ncc(C(F)(F)F)cc34)C2)CC1 | nM | > | 25000
O=C(CNc1ncnc2ccc(C(F)(F)F)cc12)NC1CN(C2CCC([C@@H](O)C3CC3)CC2)C1 (single isomer, unassigned; (-)) [(−) 6] | nM | = | 8
CCC([C@H]1CC[C@@H](N2CC(NC(=O)CNc3ncnc4ccc(C(F)(F)F)cc34)C2)CC1)N(C)C (some centres unmarked) | nM | = | 5040
CCC(OC(C)=O)[C@H]1CC[C@@H](N2CC(NC(=O)CNc3ncnc4ccc(C(F)(F)F)cc34)C2)CC1 (some centres unmarked) | nM | = | 28
O=C(CNc1ncnc2ccc(C(F)(F)F)cc12)NC1CN([C@H]2CC[C@@H](C3CCCO3)CC2)C1 (some centres unmarked) | nM | = | 49
